Origin of measurements: the supplement of paper PMC3334620

measuredTarget: Cst6 (UniProt P40535)
Sequence (P40535 whole entry): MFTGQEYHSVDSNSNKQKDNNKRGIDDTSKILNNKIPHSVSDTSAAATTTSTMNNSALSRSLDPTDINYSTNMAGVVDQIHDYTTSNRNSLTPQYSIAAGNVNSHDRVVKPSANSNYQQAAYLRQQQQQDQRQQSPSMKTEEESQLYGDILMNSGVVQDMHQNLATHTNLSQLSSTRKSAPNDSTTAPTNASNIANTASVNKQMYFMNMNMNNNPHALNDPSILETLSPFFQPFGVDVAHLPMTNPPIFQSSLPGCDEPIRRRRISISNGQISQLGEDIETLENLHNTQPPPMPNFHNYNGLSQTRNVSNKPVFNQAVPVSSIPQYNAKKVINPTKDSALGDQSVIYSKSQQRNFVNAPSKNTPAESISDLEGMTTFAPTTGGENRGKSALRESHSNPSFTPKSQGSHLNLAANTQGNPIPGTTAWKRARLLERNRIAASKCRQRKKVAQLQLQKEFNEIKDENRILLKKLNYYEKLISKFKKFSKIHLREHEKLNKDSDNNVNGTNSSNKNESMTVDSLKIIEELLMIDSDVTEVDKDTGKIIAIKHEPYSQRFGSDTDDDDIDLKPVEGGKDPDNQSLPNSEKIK
measurementNotes: PBM E-score (8-mer binding enrichment) (E-score (-0.5 to 0.5)); higher = stronger / more preferred TF binding
measurementParameters: protein concentration: 200 nM; construct: GST-DNA-binding domain
The full ranking holds about 33,000 sequences; the median of “E-score (-0.5 to 0.5)” is about -0.016, and the highest 2% start at about 0.31. Shown is part of a subset that was picked to be rich in the highest values.
Attribute: PBM E-score
// print number alone

[[record]]
chain = "GCGATGAA"
measurementtype = "PBM E-score"
quantitativereadout = 0.0225


## Input Give the measured PBM E-score for CCGATCTC
## Output -0.145

## Input Give the measured PBM E-score for AGGTATTC
## Output 0.0784

## Input Give the measured PBM E-score for GCGCAGCC
## Output -0.38

## Input Give the measured PBM E-score for GCAACCCA
## Output -0.0438

## Input Give the measured PBM E-score for GGGATGAC
## Output 0.221

## Input Give the measured PBM E-score for ATATGCAC
## Output 0.0769

###

measuredTarget: Cst6 (UniProt P40535)
measurementNotes: PBM E-score (8-mer binding enrichment) (E-score (-0.5 to 0.5)); higher = stronger / more preferred TF binding
measurementParameters: protein concentration: 200 nM; construct: GST-DNA-binding domain
In all, about 33,000 sequences were measured (“E-score (-0.5 to 0.5)”: median about -0.016, highest 2% from about 0.31 on). The full list was thinned out, with the highest values kept by preference.
Recorded PBM E-score determines the label; the label ranges are lower bin: < 0.04; middle bin: ≥ 0.04 and < 0.3; upper bin: ≥ 0.3

Known results for sequences:
[[record]]
chain = "CGATGAGA"
classname = "lower bin"

[[record]]
chain = "CGAGCCTA"
classname = "lower bin"

[[record]]
chain = "GGATGACA"
classname = "middle bin"

[[record]]
chain = "ATCGTCAC"
classname = "upper bin"

[[record]]
chain = "CCGTTATA"
classname = "lower bin"

[[record]]
chain = "ACGTTATG"
classname = "upper bin"

[[record]]
chain = "TGATGACA"
classname = "upper bin"

[[record]]
chain = "CGATGACA"
classname = "upper bin"

[[record]]
chain = "AGTCATAG"
classname = "middle bin"

[[record]]
chain = "AGACGTAA"
classname = "upper bin"


## Input Lab note: sort CGTCATAG into the matching PBM E-score band.
## Output upper bin

## Input Lab note: sort CAGCGCCC into the matching PBM E-score band.
## Output lower bin

## Input Lab note: sort CACCGCAG into the matching PBM E-score band.
## Output lower bin

## Input Lab note: sort CGACGTAC into the matching PBM E-score band.
## Output middle bin

## Input Lab note: sort CGATGACC into the matching PBM E-score band.
## Output middle bin

## Input Lab note: sort TCATGAGA into the matching PBM E-score band.
## Output middle bin

## Input Lab note: sort AATCCATA into the matching PBM E-score band.
## Output middle bin

## Input Lab note: sort AACTGAGC into the matching PBM E-score band.
## Output lower bin

## Input Lab note: sort ACGTTATC into the matching PBM E-score band.
## Output middle bin

## Input Lab note: sort AGACCTAC into the matching PBM E-score band.
## Output lower bin
